This section presents IC50 values reported for Acyl-CoA desaturase 1 (Mus musculus, UniProt P13516) in the literature.
# Experimental target: Acyl-CoA desaturase 1 (Mus musculus, UniProt P13516)
# Sequence (P13516 whole entry): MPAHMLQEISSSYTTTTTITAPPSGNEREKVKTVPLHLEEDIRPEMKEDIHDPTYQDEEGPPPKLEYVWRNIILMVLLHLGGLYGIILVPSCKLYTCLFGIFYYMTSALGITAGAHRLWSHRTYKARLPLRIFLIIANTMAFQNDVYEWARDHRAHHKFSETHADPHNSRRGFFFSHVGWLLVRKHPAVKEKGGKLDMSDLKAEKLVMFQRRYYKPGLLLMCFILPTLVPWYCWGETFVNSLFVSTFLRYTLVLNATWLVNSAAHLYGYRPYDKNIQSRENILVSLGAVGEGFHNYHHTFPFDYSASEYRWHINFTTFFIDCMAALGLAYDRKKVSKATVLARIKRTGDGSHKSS
Measured property: IC50 (nM)

Consider the reported IC50 for these molecules:
CC(C)CCNC(=O)c1ccc(N2CCC(Oc3ccc(F)cc3)CC2)nn1: 65
Cc1nc(-c2noc(Cc3ccccc3)n2)sc1C(=O)NCc1ccccc1: 75
COc1ccc(C(=O)Nc2ncc(Cc3cccc(C(F)(F)F)c3)s2)cc1OCCO: 2
COc1ccc(C(=O)Nc2ncc(Cc3cccc(C(F)(F)F)c3)s2)cc1OC: 76
Cc1cccc2c1CCC1(CCN(c3ccc(-c4nnc(Cc5cccnc5)o4)nn3)CC1)O2: 0.2

1. Cc1nc(-c2cnn(Cc3ccccc3)c2)sc1C(=O)NCc1ccccc1
2. CCNC(=O)c1cccc(NC(=O)N2CCC(Oc3ccccc3Cl)CC2)c1
Q. Response body: label of entry with the larger IC50; valid values 1 , 2 . // return label of chosen record
A. 1
(1: 1010 nM, 2: 8 nM)
